- target-entity: Vasopressin V1a/V2 (Homo sapiens) (UniProt P30518+P37288)
- Sequence (P30518 whole entry, looked up): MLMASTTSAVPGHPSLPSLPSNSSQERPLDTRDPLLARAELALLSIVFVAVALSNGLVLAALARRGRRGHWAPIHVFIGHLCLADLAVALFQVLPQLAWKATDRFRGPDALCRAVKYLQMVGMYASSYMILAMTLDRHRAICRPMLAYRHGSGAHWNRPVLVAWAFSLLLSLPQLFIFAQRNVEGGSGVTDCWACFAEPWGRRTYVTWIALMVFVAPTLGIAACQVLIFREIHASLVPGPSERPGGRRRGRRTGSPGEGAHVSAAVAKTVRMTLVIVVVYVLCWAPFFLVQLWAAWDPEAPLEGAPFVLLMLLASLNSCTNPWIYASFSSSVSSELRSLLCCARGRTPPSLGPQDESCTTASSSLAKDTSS
- Sequence (P37288 whole entry, looked up): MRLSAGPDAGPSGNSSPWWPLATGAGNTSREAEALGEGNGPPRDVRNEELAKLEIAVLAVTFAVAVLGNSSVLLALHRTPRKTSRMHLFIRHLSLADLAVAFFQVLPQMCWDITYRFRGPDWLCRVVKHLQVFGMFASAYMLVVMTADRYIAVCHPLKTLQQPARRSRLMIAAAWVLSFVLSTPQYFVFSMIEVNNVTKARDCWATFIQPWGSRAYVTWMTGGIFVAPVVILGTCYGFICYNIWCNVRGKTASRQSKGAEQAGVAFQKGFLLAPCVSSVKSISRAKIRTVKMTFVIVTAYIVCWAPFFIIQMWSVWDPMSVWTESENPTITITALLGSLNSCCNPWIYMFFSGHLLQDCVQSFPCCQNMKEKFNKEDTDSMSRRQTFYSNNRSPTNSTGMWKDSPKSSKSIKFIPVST
- test: Selectivity ratio of EC50 for human vasopressin V2 receptor to EC50 for human vasopressin V1a receptor
Bridge positions count the residues as written; N and C are the ends. Square brackets hold non-standard residues; d marks the D form. Peptide text beside a SMILES is read from it. Ala(2-furyl) = N[C@@H](Cc1ccco1)C(=O)O; Orn = NCCC[C@H](N)C(=O)O; Dab = NCC[C@H](N)C(=O)O; Ac4c = NC1(C(=O)O)CCC1
metric-name: Ratio EC50

{"compound": "CC[C@H](C)[C@@H]1NC(=O)[C@H](Cc2ccccc2)NC(=O)[C@@H](N)CSSC[C@@H](C(=O)N2CCC[C@H]2C(=O)N[C@@H](CCCN)C(=O)NCC(N)=O)NC(=O)[C@H](CC(N)=O)NC(=O)[C@H](CC(=O)N(C)C)NC1=O (H-CFID(NMe2)NCP[Orn]G-NH2; disulfide 1-6)", "target-entity": "Vasopressin V1a/V2 (Homo sapiens) (UniProt P30518+P37288)", "metric-name": "Ratio EC50", "data-value": "> 5800"}
{"compound": "CC[C@H](C)[C@@H]1NC(=O)C2(CCC2)NC(=O)[C@@H](N)CSSC[C@@H](C(=O)N2CCC[C@H]2C(=O)N[C@@H](CCN)C(=O)NCC(N)=O)NC(=O)[C@H](CC(N)=O)NC(=O)[C@H](CC(N)=O)NC1=O (H-C[Ac4c]INNCP[Dab]G-NH2; disulfide 1-6)", "target-entity": "Vasopressin V1a/V2 (Homo sapiens) (UniProt P30518+P37288)", "metric-name": "Ratio EC50", "data-value": "> 830"}
{"compound": "CC[C@H](C)[C@@H]1NC(=O)[C@H](Cc2ccco2)NC(=O)[C@@H](N)CSSC[C@@H](C(=O)N2CCC[C@H]2C(=O)N[C@@H](CCN)C(=O)NCC(N)=O)NC(=O)[C@H](CC(N)=O)NC(=O)[C@H](CC(N)=O)NC1=O (H-C[Ala(2-furyl)]INNCP[Dab]G-NH2; disulfide 1-6)", "target-entity": "Vasopressin V1a/V2 (Homo sapiens) (UniProt P30518+P37288)", "metric-name": "Ratio EC50", "data-value": "> 710"}
{"compound": "CC[C@H](C)[C@@H]1NC(=O)[C@H](Cc2ccccc2)NC(=O)[C@@H](N)CSSC[C@@H](C(=O)N2CCC[C@H]2C(=O)N[C@@H](CCN)C(=O)NCC(N)=O)NC(=O)[C@H](CC(N)=O)NC(=O)[C@H](CCC(N)=O)NC1=O (H-CFIQNCP[Dab]G-NH2; disulfide 1-6)", "target-entity": "Vasopressin V1a/V2 (Homo sapiens) (UniProt P30518+P37288)", "metric-name": "Ratio EC50", "data-value": 140}

Value source: ChEMBL document CHEMBL1817572
